- experiment_description: MIC ratio measured as the mean MICs of gram-negative bacteria
- Format: functional
Threshold check on Ratio: at or above 0.1 gives TRUE, strictly below gives FALSE.

| compound | class_name |
| --- | --- |
| CCc1c(F)c(N2CCNCC2)cc2c1c(=O)c(C(=O)O)cn2C1CC1 | TRUE |
| CCNCC1CCN(c2cc3c(cc2F)c(=O)c(C(=O)O)cn3-c2ccc(F)cc2F)C1 (stereo not given) | TRUE |
| CCn1cc(C(=O)O)c(=O)c2cc(F)c(N3CCNCC3)cc21 | FALSE |
| Cc1c(F)c(N2CCC(N)C2)c(F)c2c1c(=O)c(C(=O)O)cn2C1CC1 (stereo not given) | FALSE |
| NC1CCN(c2cc3c(cc2F)c(=O)c(C(=O)O)cn3C2CC2)C1 (stereo not given) | FALSE |

stdin: Entry CC1(CN)CCN(c2cc3c(cc2F)c(=O)c(C(=O)O)cn3C2CC2)C1 (stereo not given) : is its Ratio no less than 0.1?
stdout: TRUE

stdin: Entry CCNCC1CCN(c2cc3c(c(C)c2F)c(=O)c(C(=O)O)cn3CC)C1 (stereo not given) : is its Ratio no less than 0.1?
stdout: TRUE

stdin: Entry CC1CN(c2cc3c(cc2F)c(=O)c(C(=O)O)cn3-c2ccc(F)cc2F)CCN1 (stereo not given) : is its Ratio no less than 0.1?
stdout: TRUE

stdin: Entry CCn1cc(C(=O)O)c(=O)c2c(C)c(F)c(N3CCNCC3)c(F)c21 : is its Ratio no less than 0.1?
stdout: TRUE

stdin: Entry O=C(O)c1cn(C2CC2)c2c(F)c(N3CCNCC3)c(F)cc2c1=O : is its Ratio no less than 0.1?
stdout: FALSE

stdin: Entry CCn1cc(C(=O)O)c(=O)c2cc(F)c(N3CCC(N)C3)c(F)c21 (stereo not given) : is its Ratio no less than 0.1?
stdout: TRUE

stdin: Entry NC1CCN(c2cc3c(cc2F)c(=O)c(C(=O)O)cn3-c2ccc(F)cc2F)C1 (stereo not given) : is its Ratio no less than 0.1?
stdout: FALSE

stdin: Entry CCn1cc(C(=O)O)c(=O)c2c(C)c(F)c(N3CCC(N)C3)cc21 (stereo not given) : is its Ratio no less than 0.1?
stdout: TRUE

stdin: Entry O=C(O)c1cn(-c2ccc(F)cc2F)c2cc(N3CCNCC3)c(F)cc2c1=O : is its Ratio no less than 0.1?
stdout: TRUE

###

- System: Pseudomonas aeruginosa
- experiment_description: Antibacterial activity was determined against gram negative organism, Pseudomonas aeruginosa (UI-18)
- Format: functional
MIC strictly under 0.8 µg/mL means Satisfied; at 0.8 µg/mL or over means Not satisfied.

| molecule | class_name |
| --- | --- |
| CC1CN(c2cc3c(cc2F)c(=O)c(C(=O)O)cn3C2CC2)CCN1 (stereo unspecified) | Satisfied |
| O=C(O)c1cn(C2CC2)c2c(Cl)c(N3CCNCC3)c(F)cc2c1=O | Satisfied |
| CCn1cc(C(=O)O)c(=O)c2c(C)c(F)c(N3CCC(N)C3)cc21 (stereo unspecified) | Not satisfied |

stdin: Determine whether this molecule shows MIC lower than 0.8 µg/mL (ties excluded): CCNCC1CCN(c2c(F)cc3c(=O)c(C(=O)O)cn(C4CC4)c3c2F)C1 (stereo unspecified)
stdout: Satisfied

stdin: Determine whether this molecule shows MIC lower than 0.8 µg/mL (ties excluded): Cc1c(F)c(N2CCC(C)(CN)C2)cc2c1c(=O)c(C(=O)O)cn2C1CC1 (stereo unspecified)
stdout: Not satisfied

stdin: Determine whether this molecule shows MIC lower than 0.8 µg/mL (ties excluded): CCc1c(F)c(N2CCNC(C)C2)cc2c1c(=O)c(C(=O)O)cn2C1CC1 (stereo unspecified)
stdout: Not satisfied

stdin: Determine whether this molecule shows MIC lower than 0.8 µg/mL (ties excluded): CCn1cc(C(=O)O)c(=O)c2c(C)c(F)c(N3CCNCC3)c(F)c21
stdout: Not satisfied

stdin: Determine whether this molecule shows MIC lower than 0.8 µg/mL (ties excluded): CCn1cc(C(=O)O)c(=O)c2c(C)c(F)c(N3CCC(N)C3)c(F)c21 (stereo unspecified)
stdout: Not satisfied

###

- experiment_description: MIC ratio measured as the mean MICs of gram-positive bacteria
- Assay type: functional
// Ratio lookup, one value per entry
# output: bare number, no unit

Worked cases, Ratio given:
| compound | Ratio |
| --- | --- |
| CCc1c(F)c(N2CCNC(C)C2)cc2c1c(=O)c(C(=O)O)cn2C1CC1 (stereo not given) | 10.9 |
| CCNCC1CCN(c2cc3c(c(C)c2F)c(=O)c(C(=O)O)cn3-c2ccc(F)cc2F)C1 (stereo not given) | 0.05 |
| CC1(CN)CCN(c2c(F)cc3c(=O)c(C(=O)O)cn(C4CC4)c3c2F)C1 (stereo not given) | 0.095 |

stdin: GET /values?readout=Ratio&item= NC1CCN(c2c(F)cc3c(=O)c(C(=O)O)cn(C4CC4)c3c2Cl)C1 (stereo not given)
stdout: 0.029

stdin: GET /values?readout=Ratio&item= CCn1cc(C(=O)O)c(=O)c2c(C)c(F)c(N3CCC(N)C3)c(F)c21 (stereo not given)
stdout: 0.69

###

- Tested on: Streptococcus pyogenes
- experiment_description: Antibacterial activity was determined against gram positive organism, Streptococcus pyogenes (C203)
- Type: functional
endpoint_name: log10 MIC (log10 of the value in µg/mL)
Hi team, quick reminder: these entries are log10 of MIC (µg/mL).

| compound | log10 MIC |
| --- | --- |
| CCc1c(F)c(N2CCC(N)C2)cc2c1c(=O)c(C(=O)O)cn2C1CC1 (stereo unspecified) | 0.49 |
| Cc1c(F)c(N2CCNC(C)C2)cc2c1c(=O)c(C(=O)O)cn2-c1ccc(F)cc1F (stereo unspecified) | -1.00 |
| Cc1c(F)c(N2CCC(N)C2)c(F)c2c1c(=O)c(C(=O)O)cn2C1CC1 (stereo unspecified) | -1.89 |
| CCn1cc(C(=O)O)c(=O)c2c(C)c(F)c(N3CCNCC3)c(F)c21 | 1.10 |
| Cc1c(F)c(N2CCC(C)(CN)C2)c(F)c2c1c(=O)c(C(=O)O)cn2C1CC1 (stereo unspecified) | -2.52 |
| Cc1c(F)c(N2CCNCC2)c(Cl)c2c1c(=O)c(C(=O)O)cn2C1CC1 | -0.70 |

stdin: Kindly state the measured log10 MIC obtained for CCNCC1CCN(c2c(F)cc3c(=O)c(C(=O)O)cn(C4CC4)c3c2F)C1 (stereo unspecified) with Streptococcus pyogenes.
stdout: -1.60

stdin: Kindly state the measured log10 MIC obtained for CC1(CN)CCN(c2cc3c(cc2F)c(=O)c(C(=O)O)cn3C2CC2)C1 (stereo unspecified) with Streptococcus pyogenes.
stdout: -1.30

stdin: Kindly state the measured log10 MIC obtained for Cc1c(F)c(N2CCC(C)(CN)C2)cc2c1c(=O)c(C(=O)O)cn2C1CC1 (stereo unspecified) with Streptococcus pyogenes.
stdout: -1.89

stdin: Kindly state the measured log10 MIC obtained for CCc1c(F)c(N2CCNC(C)C2)cc2c1c(=O)c(C(=O)O)cn2C1CC1 (stereo unspecified) with Streptococcus pyogenes.
stdout: 1.40

stdin: Kindly state the measured log10 MIC obtained for CCNCC1CCN(c2cc3c(cc2F)c(=O)c(C(=O)O)cn3-c2ccc(F)cc2F)C1 (stereo unspecified) with Streptococcus pyogenes.
stdout: -1.00

stdin: Kindly state the measured log10 MIC obtained for NC1CCN(c2c(F)cc3c(=O)c(C(=O)O)cn(C4CC4)c3c2Cl)C1 (stereo unspecified) with Streptococcus pyogenes.
stdout: -1.30

stdin: Kindly state the measured log10 MIC obtained for Cc1c(F)c(N2CCC(N)C2)cc2c1c(=O)c(C(=O)O)cn2C1CC1 (stereo unspecified) with Streptococcus pyogenes.
stdout: -1.60

stdin: Kindly state the measured log10 MIC obtained for CCNCC1CCN(c2cc3c(c(C)c2F)c(=O)c(C(=O)O)cn3-c2ccc(F)cc2F)C1 (stereo unspecified) with Streptococcus pyogenes.
stdout: -1.60

stdin: Kindly state the measured log10 MIC obtained for CCn1cc(C(=O)O)c(=O)c2c(C)c(F)c(N3CCC(N)C3)c(F)c21 (stereo unspecified) with Streptococcus pyogenes.
stdout: 0.49

stdin: Kindly state the measured log10 MIC obtained for NC1CCN(c2cc3c(cc2F)c(=O)c(C(=O)O)cn3-c2ccc(F)cc2F)C1 (stereo unspecified) with Streptococcus pyogenes.
stdout: -1.60

stdin: Kindly state the measured log10 MIC obtained for CCn1cc(C(=O)O)c(=O)c2cc(F)c(N3CCC(N)C3)cc21 (stereo unspecified) with Streptococcus pyogenes.
stdout: -0.40

###

- experiment_description: MIC ratio measured as the mean MICs of gram-positive bacteria
- Format: functional
Threshold check on Ratio: at or above 0.2 gives criterion met, strictly below gives criterion not met.

| molecule | class_name |
| --- | --- |
| CC1CN(c2c(F)cc3c(=O)c(C(=O)O)cn(C4CC4)c3c2F)CCN1 (stereo unspecified) | criterion met |
| Cc1c(F)c(N2CCC(N)C2)c(F)c2c1c(=O)c(C(=O)O)cn2C1CC1 (stereo unspecified) | criterion not met |

stdin: Entry Cc1c(F)c(N2CCNC(C)C2)c(F)c2c1c(=O)c(C(=O)O)cn2C1CC1 (stereo unspecified) : is its Ratio no less than 0.2?
stdout: criterion not met

stdin: Entry CCc1c(F)c(N2CCNCC2)cc2c1c(=O)c(C(=O)O)cn2C1CC1 : is its Ratio no less than 0.2?
stdout: criterion met

stdin: Entry CCNCC1CCN(c2c(F)c(C)c3c(=O)c(C(=O)O)cn(C4CC4)c3c2F)C1 (stereo unspecified) : is its Ratio no less than 0.2?
stdout: criterion not met

stdin: Entry Cc1c(F)c(N2CCC(N)C2)c(Cl)c2c1c(=O)c(C(=O)O)cn2C1CC1 (stereo unspecified) : is its Ratio no less than 0.2?
stdout: criterion not met

stdin: Entry Cc1c(F)c(N2CCNCC2)cc2c1c(=O)c(C(=O)O)cn2-c1ccc(F)cc1F : is its Ratio no less than 0.2?
stdout: criterion not met

stdin: Entry CCn1cc(C(=O)O)c(=O)c2cc(F)c(N3CCNCC3)c(F)c21 : is its Ratio no less than 0.2?
stdout: criterion met

stdin: Entry Cc1c(F)c(N2CCNCC2)c(F)c2c1c(=O)c(C(=O)O)cn2C1CC1 : is its Ratio no less than 0.2?
stdout: criterion not met

stdin: Entry CCn1cc(C(=O)O)c(=O)c2cc(F)c(N3CC(C)NC(C)C3)cc21 (stereo unspecified) : is its Ratio no less than 0.2?
stdout: criterion met
